Source listed as patent US6913917B2.

experiment: Hydrolysis of 3H-cocaine by Mab's (kinetic measurements); settings: Michaelis constant; pH that optimized kcat/ko: in general pH 7.8; 6A12 pH 7.4; 2A10 pH 7.0

molecule	Km [µM]
Mab 8G4E: anti-cocaine catalytic monoclonal antibody elicited by TSA 3 (antibody, V domains shown, mouse) VH: VQLLESGAELVMPGASVKMSCKASGYTFTDHWMHWVKQRPGQGLEWIGTIDLSDTYTGYNQNFKGRATLTLDESSNTAYMQLSSLTSEDSAVYYCSRRGFDYWGQGTTLTVSS VL: ELVMTQSPLTLSVTIGQPASISCKSSQSLLYSDGKTYLNWFFQRPGQSPKRLIYLVSKLDSGVPDRFTGSGSGKDFTLKISRVEAEDLGLYYCVQGYTFPLTFGAGTKLELKR	1200
Mab 6A12: anti-cocaine catalytic monoclonal antibody elicited by TSA 1 (antibody, mouse) heavy: DVQLQESGPGLVKPSQSLSLTCTVTGNSITSDYAWTWIRQFPGNKLEWMGYIRHIYGTRYNPSLISRISITRDTSKNQFFLQLDSVTAEDTATYYCVRYHYYGSAYWGQGTLVTVSAAKTTP light: DMVMTQDELSNPVTSGESVSISCRSSRSLLYRDGKTYLNWFLQRPGRSPQLLIYLMSTRASGVSDRFSGSGSGTDFTLEISRVKAEDVGVYYFQHFEDYPFTFGSGTKLEIKR	1020
